# System Under Test: human BCRP (Homo sapiens, UniProt Q9UNQ0)
# Sequence (Q9UNQ0 whole entry): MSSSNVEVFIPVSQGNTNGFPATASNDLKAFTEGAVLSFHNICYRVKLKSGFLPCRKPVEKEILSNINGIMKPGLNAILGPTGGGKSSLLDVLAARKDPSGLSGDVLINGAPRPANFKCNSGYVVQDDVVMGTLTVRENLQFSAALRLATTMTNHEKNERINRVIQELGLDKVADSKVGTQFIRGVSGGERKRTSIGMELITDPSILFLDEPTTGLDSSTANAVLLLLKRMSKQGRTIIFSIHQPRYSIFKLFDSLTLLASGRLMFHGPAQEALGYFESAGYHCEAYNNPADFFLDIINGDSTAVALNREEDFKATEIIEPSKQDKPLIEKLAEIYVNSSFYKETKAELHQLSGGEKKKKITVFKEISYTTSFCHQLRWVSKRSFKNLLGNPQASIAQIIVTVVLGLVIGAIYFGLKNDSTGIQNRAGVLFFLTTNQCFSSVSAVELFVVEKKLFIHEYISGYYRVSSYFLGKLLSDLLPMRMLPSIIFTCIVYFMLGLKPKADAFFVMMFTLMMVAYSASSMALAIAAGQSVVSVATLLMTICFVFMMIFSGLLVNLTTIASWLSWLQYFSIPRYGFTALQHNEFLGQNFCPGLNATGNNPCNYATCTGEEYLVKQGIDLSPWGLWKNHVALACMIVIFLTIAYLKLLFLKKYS
# Procedure Details: Bi-directional transport of prazosin in MDCKII/BCRP cells
Property Measured: Ki (µM)

# Molecule, Quantity Unit, Observed Result
rows = [
    ("O=c1c(O)c(-c2ccc(O)c(O)c2)oc2cc(O)cc(O)c12 [quercetin, Quercetin]", "µM", 3.91),
]

====

# Tested on: HeLa cells
# Procedure Details: Cytotoxicity assay (CCK-8) of mitoxantrone with or without BCRP inhibitor
# Format: cell-based, human
# Protocol Conditions: Homo sapiens, HeLa, 24 h, with 100 μM quercetin, CCK-8
pIC50: −log10 of the molar value.

# Structure String, pIC50
rows = [
    ("O=C1c2c(O)ccc(O)c2C(=O)c2c(NCCNCCO)ccc(NCCNCCO)c21", 6.32),
]

====

# Procedure Details: in vivo
# Set-up: species or system rats
# Protocol Conditions: male, SD, rat, po, 2 mg/kg, t1/2

# Structure String, half-life (h)
rows = [
    ("O=C(O)c1cc(/N=N/c2ccc(S(=O)(=O)Nc3ccccn3)cc2)ccc1O", 6.38),
]

====

# System: HeLa cells
# Procedure Details: Cytotoxicity assay (CCK-8) of mitoxantrone with or without BCRP inhibitor
# Format: cell-based, human
# Protocol Conditions: Homo sapiens, HeLa, 24 h, mitoxantrone alone, CCK-8
pIC50: −log10 of the molar value.

# Molecule, pIC50
measured = [
    ("O=C1c2c(O)ccc(O)c2C(=O)c2c(NCCNCCO)ccc(NCCNCCO)c21 [mitoxantrone]", 5.23),
]

====

# Procedure Details: in vivo
# Set-up: species or system rats
# Protocol Conditions: male, SD, rat, po, 2 mg/kg, AUC8h

# Compound, Quantity Unit, AUC(0-t)
records = [
    ("O=C(O)c1cc(/N=N/c2ccc(S(=O)(=O)Nc3ccccn3)cc2)ccc1O [sulfasalazine]", "ng·h/mL", 428),
]

====

# Procedure Details: in vivo
# Design: species or system rats
# Protocol Conditions: male, SD, rat, po, 2 mg/kg, CL/F
# Protocol: To determine whether quercetin affects the intestinal efflux mediated by BCRP, we divided the male rats into two groups: A sulfasalazine (a substrate of BCRP) control group and a quercetin pretreatment plus sulfasalazine group (n = 4, each). […] The pretreatment dose of quercetin was determined based on the compound solubility in the dosing vehicle and the likely daily dose of human dietary supplement. […]

# Compound, Quantity Unit, CL/F
data = [
    ("O=C(O)c1cc(/N=N/c2ccc(S(=O)(=O)Nc3ccccn3)cc2)ccc1O [sulfasalazine]", "mL/min/kg", 52.5),
]

====

# Test system: HeLa cells
# Procedure Details: Cytotoxicity assay (CCK-8) of mitoxantrone with or without BCRP inhibitor
# Assay type: cell-based, human
# Protocol Conditions: Homo sapiens, 24 h, in the presence of Ko143 (1 μM), CCK-8
# Experimental: Dojindo Molecular Technologies, Kumamoto, Japan) following the manufacturer’s instructions. HeLa cells (at a density of 1 × 10^4 cells per well) were seeded and cultured overnight in 96-well plates. […] The absorbance was measured at a wavelength of 450 nm using a microplate reader (BioTeK, Highland Park, WI, USA).
pIC50: −log10 of the molar value.

# Structure String, pIC50
data = [
    ("O=C1c2c(O)ccc(O)c2C(=O)c2c(NCCNCCO)ccc(NCCNCCO)c21", 6.21),
]
